FYI, the data here is from ChEMBL document CHEMBL4321868.

# Assay summary: Selectivity index, ratio of CC50 for human MT4 cells to EC50 for HIV-1 NL4.3 infected in human MT4 cells
Consider the following molecules; for each one, report its selectivity ratio.

Look up selectivity ratio for this molecule: O=C(CCC(CCC(=O)NC(Cc1c(-c2cc(C(=O)O)cc(C(=O)O)c2)[nH]c2ccccc12)C(=O)O)(CCC(=O)NC(Cc1c(-c2cc(C(=O)O)cc(C(=O)O)c2)[nH]c2ccccc12)C(=O)O)[N+](=O)[O-])NC(Cc1c(-c2cc(C(=O)O)cc(C(=O)O)c2)[nH]c2ccccc12)C(=O)O (stereo not drawn)
> 370

Look up selectivity ratio for this molecule: O=C(CCC(CCC(=O)NC(Cc1c(-c2ccc(C(=O)O)cc2)[nH]c2ccccc12)C(=O)O)(CCC(=O)NC(Cc1c(-c2ccc(C(=O)O)cc2)[nH]c2ccccc12)C(=O)O)[N+](=O)[O-])NC(Cc1c(-c2ccc(C(=O)O)cc2)[nH]c2ccccc12)C(=O)O (stereo not drawn)
29.6

Look up selectivity ratio for this molecule: O=C(CCOCC(COCCC(=O)NC(Cc1c(-c2cccc(C(=O)O)c2)[nH]c2ccccc12)C(=O)O)(COCCC(=O)NC(Cc1c(-c2cccc(C(=O)O)c2)[nH]c2ccccc12)C(=O)O)COCCC(=O)NC(Cc1c(-c2cccc(C(=O)O)c2)[nH]c2ccccc12)C(=O)O)NC(Cc1c(-c2cccc(C(=O)O)c2)[nH]c2ccccc12)C(=O)O (stereo not drawn)
> 50

====

# Assay summary: Cytotoxicity against human MT4 cells assessed as reduction in cell viability measured after 5 days by MTS/PES assay
# Assay type: cell-based
Consider the following compounds; for each one, report its CC50 at 120 h.

Look up CC50 at 120 h for this compound: COc1ccc(-c2[nH]c3ccccc3c2CC(NC(=O)CCC(CCC(=O)NC(Cc2c(-c3ccc(OC)cc3)[nH]c3ccccc23)C(=O)O)(CCC(=O)NC(Cc2c(-c3ccc(OC)cc3)[nH]c3ccccc23)C(=O)O)[N+](=O)[O-])C(=O)O)cc1 (stereo not given)
9.3 µM

Look up CC50 at 120 h for this compound: O=C(CCOCC(COCCC(=O)NC(Cc1cn(Cc2ccc(C(=O)O)cc2)c2ccccc12)C(=O)O)(COCCC(=O)NC(Cc1cn(Cc2ccc(C(=O)O)cc2)c2ccccc12)C(=O)O)COCCC(=O)NC(Cc1cn(Cc2ccc(C(=O)O)cc2)c2ccccc12)C(=O)O)NC(Cc1cn(Cc2ccc(C(=O)O)cc2)c2ccccc12)C(=O)O (stereo not given)
76 µM

Look up CC50 at 120 h for this compound: O=C(CCC(CCC(=O)NC(Cc1cn(Cc2ccc(F)cc2)c2ccccc12)C(=O)O)(CCC(=O)NC(Cc1cn(Cc2ccc(F)cc2)c2ccccc12)C(=O)O)[N+](=O)[O-])NC(Cc1cn(Cc2ccc(F)cc2)c2ccccc12)C(=O)O (stereo not given)
> 100 µM

Look up CC50 at 120 h for this compound: O=C(CCC(CCC(=O)NC(Cc1c(-c2cccc(C(=O)O)c2)[nH]c2ccccc12)C(=O)O)(CCC(=O)NC(Cc1c(-c2cccc(C(=O)O)c2)[nH]c2ccccc12)C(=O)O)[N+](=O)[O-])NC(Cc1c(-c2cccc(C(=O)O)c2)[nH]c2ccccc12)C(=O)O (stereo not given)
> 100 µM

Look up CC50 at 120 h for this compound: O=C(CCC(CCC(=O)NC(Cc1cn(Cc2ccccc2)c2ccccc12)C(=O)O)(CCC(=O)NC(Cc1cn(Cc2ccccc2)c2ccccc12)C(=O)O)[N+](=O)[O-])NC(Cc1cn(Cc2ccccc2)c2ccccc12)C(=O)O (stereo not given)
> 100 µM

Look up CC50 at 120 h for this compound: O=C(CCC(CCC(=O)NC(Cc1c(-c2ccc([N+](=O)[O-])cc2)[nH]c2ccccc12)C(=O)O)(CCC(=O)NC(Cc1c(-c2ccc([N+](=O)[O-])cc2)[nH]c2ccccc12)C(=O)O)[N+](=O)[O-])NC(Cc1c(-c2ccc([N+](=O)[O-])cc2)[nH]c2ccccc12)C(=O)O (stereo not given)
> 100 µM

Look up CC50 at 120 h for this compound: O=C(CCC(CCC(=O)NC(Cc1c(-c2cc(C(=O)O)cc(C(=O)O)c2)[nH]c2ccccc12)C(=O)O)(CCC(=O)NC(Cc1c(-c2cc(C(=O)O)cc(C(=O)O)c2)[nH]c2ccccc12)C(=O)O)[N+](=O)[O-])NC(Cc1c(-c2cc(C(=O)O)cc(C(=O)O)c2)[nH]c2ccccc12)C(=O)O (stereo not given)
> 100 µM

Look up CC50 at 120 h for this compound: O=C(CCOCC(COCCC(=O)NC(Cc1c(-c2ccc(C(=O)O)cc2)[nH]c2ccccc12)C(=O)O)(COCCC(=O)NC(Cc1c(-c2ccc(C(=O)O)cc2)[nH]c2ccccc12)C(=O)O)COCCC(=O)NC(Cc1c(-c2ccc(C(=O)O)cc2)[nH]c2ccccc12)C(=O)O)NC(Cc1c(-c2ccc(C(=O)O)cc2)[nH]c2ccccc12)C(=O)O (stereo not given)
> 100 µM

Look up CC50 at 120 h for this compound: O=C(CCOCC(COCCC(=O)NC(Cc1c[nH]c2ccccc12)C(=O)O)(COCCC(=O)NC(Cc1c[nH]c2ccccc12)C(=O)O)COCCC(=O)NC(Cc1c[nH]c2ccccc12)C(=O)O)NC(Cc1c[nH]c2ccccc12)C(=O)O (stereo not given)
> 250 µM

Look up CC50 at 120 h for this compound: O=C(CCC(CCC(=O)NC(Cc1c[nH]c2ccccc12)C(=O)O)(CCC(=O)NC(Cc1c[nH]c2ccccc12)C(=O)O)[N+](=O)[O-])NC(Cc1c[nH]c2ccccc12)C(=O)O (stereo not given)
> 100 µM

====

# Tested on: Enterovirus A71
# Assay summary: Antiviral activity against Enterovirus A 71 BrCr infected in human RD cells assessed as reduction in virus-induced cytopathic effect preincubated for 1 day followed by viral infection and measured after 3 days by MTS/PMS method
# Format: functional, organism-based
# Run parameters: strain BRCR
Consider the following compounds; for each one, report its pEC50.
pEC50 here is simply -log10 of the concentration when that concentration is written in mol/L.

Look up pEC50 for this compound: O=C(CCC(CCC(=O)NC(Cc1c(-c2ccc(C(=O)O)cc2)[nH]c2ccccc12)C(=O)O)(CCC(=O)NC(Cc1c(-c2ccc(C(=O)O)cc2)[nH]c2ccccc12)C(=O)O)[N+](=O)[O-])NC(Cc1c(-c2ccc(C(=O)O)cc2)[nH]c2ccccc12)C(=O)O (configuration not stated)
4.91

Look up pEC50 for this compound: O=C(CCC(CCC(=O)NC(Cc1c(-c2cc(C(=O)O)cc(C(=O)O)c2)[nH]c2ccccc12)C(=O)O)(CCC(=O)NC(Cc1c(-c2cc(C(=O)O)cc(C(=O)O)c2)[nH]c2ccccc12)C(=O)O)[N+](=O)[O-])NC(Cc1c(-c2cc(C(=O)O)cc(C(=O)O)c2)[nH]c2ccccc12)C(=O)O (configuration not stated)
6.46

Look up pEC50 for this compound: `CCOC(=O)c1ccc(OCCC2CCN(c3ccc(C)nn3)CC2)cc1`
6.52

Look up pEC50 for this compound: O=C(CCOCC(COCCC(=O)NC(Cc1c(-c2ccc(C(=O)O)cc2)[nH]c2ccccc12)C(=O)O)(COCCC(=O)NC(Cc1c(-c2ccc(C(=O)O)cc2)[nH]c2ccccc12)C(=O)O)COCCC(=O)NC(Cc1c(-c2ccc(C(=O)O)cc2)[nH]c2ccccc12)C(=O)O)NC(Cc1c(-c2ccc(C(=O)O)cc2)[nH]c2ccccc12)C(=O)O (configuration not stated)
6.43

Look up pEC50 for this compound: O=C(CCC(CCC(=O)NC(Cc1c(-c2cccc(C(=O)O)c2)[nH]c2ccccc12)C(=O)O)(CCC(=O)NC(Cc1c(-c2cccc(C(=O)O)c2)[nH]c2ccccc12)C(=O)O)[N+](=O)[O-])NC(Cc1c(-c2cccc(C(=O)O)c2)[nH]c2ccccc12)C(=O)O (configuration not stated)
6.00

====

# System: Enterovirus A71
# Assay summary: Antiviral activity against Enterovirus A 71 BrCr infected in human RD cells assessed as reduction in virus-induced cytopathic effect preincubated for 1 day followed by viral infection and measured after 3 days by MTS/PMS method
# Format: functional, organism-based
# Run parameters: strain BRCR
Measured metric: pEC50
pEC50 here is simply -log10 of the concentration when that concentration is written in mol/L.

Look up pEC50 for this compound: O=C(CCC(CCC(=O)NC(Cc1c(-c2ccc(Br)cc2)[nH]c2ccccc12)C(=O)O)(CCC(=O)NC(Cc1c(-c2ccc(Br)cc2)[nH]c2ccccc12)C(=O)O)[N+](=O)[O-])NC(Cc1c(-c2ccc(Br)cc2)[nH]c2ccccc12)C(=O)O (centres undefined)
4.19

Look up pEC50 for this compound: O=C(CCC(CCC(=O)NC(Cc1c(-c2ccc([N+](=O)[O-])cc2)[nH]c2ccccc12)C(=O)O)(CCC(=O)NC(Cc1c(-c2ccc([N+](=O)[O-])cc2)[nH]c2ccccc12)C(=O)O)[N+](=O)[O-])NC(Cc1c(-c2ccc([N+](=O)[O-])cc2)[nH]c2ccccc12)C(=O)O (centres undefined)
4.54
